TEST PROTOCOL: Pharmacokinetic evaluation after intramuscular injection to rats
Type: in vivo
CONDITION DESCRIPTION: im, male rat, solution, 17.5 mg/kg, vortioxetine in plasma, read-out: Time to peak Tmax
ENDPOINT: Tmax (min)
Please respond with the number in min and leave the unit unwritten.

// returns reported Tmax for input Cc1ccc(Sc2ccccc2N2CCNCC2)c(C)c1 15

---

TEST PROTOCOL: Pharmacokinetic evaluation after intramuscular injection to rats
Assay type: in vivo
CONDITION DESCRIPTION: im, male rat, solution, 17.5 mg/kg, vortioxetine in plasma, read-out: Peak concentration Cmax
ENDPOINT: Cmax (ng/mL)
Please respond with the number in ng/mL and leave the unit unwritten.

// returns reported Cmax for input Cc1ccc(Sc2ccccc2N2CCNCC2)c(C)c1 530

---

TEST PROTOCOL: Pharmacokinetic evaluation after intramuscular injection to rats
Type: in vivo
CONDITION DESCRIPTION: im, male rat, solution, 17.5 mg/kg, vortioxetine in plasma, read-out: Exposure level AUClast
ENDPOINT: AUC(0-t) (ng·h/mL)
Please respond with the number in ng·h/mL and leave the unit unwritten.

// returns reported AUC(0-t) for input Cc1ccc(Sc2ccccc2N2CCNCC2)c(C)c1 1370

---

TEST PROTOCOL: Pharmacokinetic evaluation after intramuscular injection to rats
Assay type: in vivo
CONDITION DESCRIPTION: im, male rat, solution, 17.5 mg/kg, vortioxetine in plasma, read-out: Half-life period T1/2 (converted)
ENDPOINT: half-life (h)
Please respond with the number in h and leave the unit unwritten.

// returns reported half-life for input Cc1ccc(Sc2ccccc2N2CCNCC2)c(C)c1 [WTXT, Vortioxetine] 2.74
